PROCEDURE DETAILS: Intra-pulmonary steady-state concentrations (plasma, ELF, alveolar cells) after multiple IV doses in healthy adult subjects
Type: in vivo, human
TEST CONTEXT: human, in vivo, Alveolar Macrophages (AM) concentration (mean ± SD)
PROPERTY NAME: concentration at 0.5 h (ng/mL)
Respond with the bare value in ng/mL.

So, CN(C)c1cc(CNCC(C)(C)C)c(O)c2c1C[C@H]1C[C@H]3C(N(C)C)C(O)=C(C(N)=O)C(=O)[C@@]3(O)C(O)=C1C2=O (stereo partly shown) ? Its concentration at 0.5 h was 14300

###

Tested on: M. mucogenium group
PROCEDURE DETAILS: MIC (CLSI broth dilution), RGM isolates
Assay type: cell-based
TEST CONTEXT: isolate 48, M. mucogenicum group, M. phocaicum; read-out: MIC
Quick reference for MIC among some compounds
Respond with the bare value in µg/mL.

COc1c(N2C[C@@H]3CCCN[C@@H]3C2)c(F)cc2c(=O)c(C(=O)O)cn(C3CC3)c12 [MXF, moxifloxacin]; 1
CN(C)c1cc(CNCC(C)(C)C)c(O)c2c1C[C@H]1C[C@H]3[C@H](N(C)C)C(O)=C(C(N)=O)C(=O)[C@@]3(O)C(O)=C1C2=O [OMC]; 0.25

Now, please, on to the next compound.
So, CN(C)c1ccc(O)c2c1C[C@H]1C[C@H]3[C@H](N(C)C)C(O)=C(C(N)=O)C(=O)[C@@]3(O)C(O)=C1C2=O [minocycline] ? Its MIC was 2
